MEASUREMENT_DESCRIPTION: hydrolysis of the compound into its active (dissolved in water, followed by NMR)
PROPERTY_LABEL: half-life

- MOLECULE: "CN(C)CCc1c[nH]c2cccc(OP(=O)(O)O)c12 [Psilocybin]"
  PROPERTY_LABEL: "half-life"
  RESULT: "< 365 days"

All values here come from patent US20230241027A1.
